molecular target: human NOX4 (Homo sapiens); construct: expressed in transfected cells; membrane fraction used; test: Cell free membrane based in vitro NOX4 assay: H2O2 production by membranes expressing human NOX4, measured with Amplex Red; assay type: biochemical; conditions: 10.0 μM compound, read-out: Percentage inhibition at 10.0 μM
Sequence (Q9NPH5 whole entry): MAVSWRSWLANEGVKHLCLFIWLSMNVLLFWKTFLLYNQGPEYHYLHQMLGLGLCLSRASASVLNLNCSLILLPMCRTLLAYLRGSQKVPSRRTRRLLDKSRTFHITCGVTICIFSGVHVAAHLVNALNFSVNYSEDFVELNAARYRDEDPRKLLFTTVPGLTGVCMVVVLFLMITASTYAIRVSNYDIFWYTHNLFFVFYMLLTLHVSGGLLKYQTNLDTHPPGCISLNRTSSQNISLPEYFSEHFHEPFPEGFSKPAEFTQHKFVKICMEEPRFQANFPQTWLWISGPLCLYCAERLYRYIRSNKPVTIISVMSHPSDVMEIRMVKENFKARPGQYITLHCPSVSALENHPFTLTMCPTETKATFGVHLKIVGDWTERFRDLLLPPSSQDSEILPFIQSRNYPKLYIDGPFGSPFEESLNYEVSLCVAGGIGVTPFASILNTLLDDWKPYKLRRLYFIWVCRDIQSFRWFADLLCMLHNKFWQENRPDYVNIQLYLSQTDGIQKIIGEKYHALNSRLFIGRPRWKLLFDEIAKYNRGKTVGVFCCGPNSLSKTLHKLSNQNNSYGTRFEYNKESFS
Sequence (P13498 whole entry partner): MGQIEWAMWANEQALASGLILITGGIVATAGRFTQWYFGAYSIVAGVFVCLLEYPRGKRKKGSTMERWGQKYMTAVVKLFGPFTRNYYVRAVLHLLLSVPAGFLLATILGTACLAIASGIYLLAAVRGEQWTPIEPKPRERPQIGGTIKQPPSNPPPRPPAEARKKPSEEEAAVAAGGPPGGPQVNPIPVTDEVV
ENDPOINT_LABEL: inhibition at 10 µM (%)

{"COMPOUND": "Cc1nn(C)c2c(=O)c(O)c(-c3ccccc3Cl)[nH]c12 [Example 83]", "TGT": "human NOX4 (Homo sapiens)", "TEST_RESULT": 99}
{"COMPOUND": "Cc1nn(C2CC2)c2[nH]c(-c3c(F)cccc3F)c(O)c(=O)c12 [Example 87]", "TGT": "human NOX4 (Homo sapiens)", "TEST_RESULT": 88.5}
{"COMPOUND": "Cc1n[nH]c2[nH]c(-c3c(F)cccc3F)c(O)c(=O)c12 [Example 106]", "TGT": "human NOX4 (Homo sapiens)", "TEST_RESULT": 100}
{"COMPOUND": "Cc1cc2c(=O)c(O)c(-c3ccccc3Cl)[nH]c2s1 [Example 60]", "TGT": "human NOX4 (Homo sapiens)", "TEST_RESULT": 100}
{"COMPOUND": "CN(C)CCn1nc(C(F)(F)F)c2c(=O)c(O)c(-c3ccccc3Cl)[nH]c21 [Example 154]", "TGT": "human NOX4 (Homo sapiens)", "TEST_RESULT": 100}
{"COMPOUND": "O=c1c(O)c(-c2c(F)cccc2F)[nH]c2c1c(CN1CCOCC1)nn2C1CC1 [Example 201]", "TGT": "human NOX4 (Homo sapiens)", "TEST_RESULT": 87}
{"COMPOUND": "CCn1nc(C)c2c(=O)c(O)c(-c3c(F)cccc3Cl)[nH]c21 [Example 123]", "TGT": "human NOX4 (Homo sapiens)", "TEST_RESULT": 76.2}
{"COMPOUND": "COc1ccc(Cl)c(-c2[nH]c3c(c(C(F)(F)F)nn3C)c(=O)c2O)c1 [Example 49]", "TGT": "human NOX4 (Homo sapiens)", "TEST_RESULT": 100}
{"COMPOUND": "O=c1c(O)c(-c2c(F)cccc2F)[nH]c2[nH]nc(C(F)(F)F)c12 [Example 98]", "TGT": "human NOX4 (Homo sapiens)", "TEST_RESULT": 93.4}
{"COMPOUND": "Cn1nc(CN2CCOCC2)c2c(=O)c(O)c(-c3c(F)cccc3F)[nH]c21 [Example 191]", "TGT": "human NOX4 (Homo sapiens)", "TEST_RESULT": 97.8}
{"COMPOUND": "COc1ccc(-c2[nH]c3c(c(C)nn3C3CC3)c(=O)c2O)c(F)c1 [Example 114]", "TGT": "human NOX4 (Homo sapiens)", "TEST_RESULT": 69.9}
{"COMPOUND": "COCCCn1nc(C)c2c(=O)c(O)c(-c3c(F)cccc3F)[nH]c21 [Example 92]", "TGT": "human NOX4 (Homo sapiens)", "TEST_RESULT": 76.5}
{"COMPOUND": "Cn1nc(C(F)(F)F)c2c(=O)c(O)c(-c3ccc(Cl)cc3)[nH]c21 [Example 43]", "TGT": "human NOX4 (Homo sapiens)", "TEST_RESULT": 97.9}
{"COMPOUND": "Cn1ncc2c(=O)c(O)c(-c3ccccc3Cl)[nH]c21 [Example 3]", "TGT": "human NOX4 (Homo sapiens)", "TEST_RESULT": 100}
{"COMPOUND": "Cc1nn(C2CCOCC2)c2[nH]c(-c3c(F)cccc3F)c(O)c(=O)c12 [Example 128]", "TGT": "human NOX4 (Homo sapiens)", "TEST_RESULT": 92.1}
{"COMPOUND": "CCn1nc(CC(C)C)c2c(=O)c(O)c(-c3c(F)cccc3F)[nH]c21 [Example 122]", "TGT": "human NOX4 (Homo sapiens)", "TEST_RESULT": 75.4}
{"COMPOUND": "CCn1nc2c(=O)c(O)c(-c3ccccc3Cl)oc2c1C [Example 229]", "TGT": "human NOX4 (Homo sapiens)", "TEST_RESULT": 5.81}
{"COMPOUND": "Cn1nc(N2CCOCC2)c2c(=O)c(O)c(-c3c(F)cccc3F)[nH]c21 [Example 117]", "TGT": "human NOX4 (Homo sapiens)", "TEST_RESULT": 15.6}
{"COMPOUND": "COc1ccc(-c2[nH]c3c(c(C)nn3Cc3ccccc3)c(=O)c2O)c(F)c1 [Example 77]", "TGT": "human NOX4 (Homo sapiens)", "TEST_RESULT": 72.1}
{"COMPOUND": "O=c1c(O)c(-c2c(F)cccc2F)[nH]c2c1c(CO)nn2C1CC1 [Example 183]", "TGT": "human NOX4 (Homo sapiens)", "TEST_RESULT": 97.1}
{"COMPOUND": "Cc1nn(Cc2ccccc2)c2[nH]c(-c3c(F)cccc3F)c(O)c(=O)c12 [Example 76]", "TGT": "human NOX4 (Homo sapiens)", "TEST_RESULT": 93.5}
{"COMPOUND": "Cn1ncc2c(=O)c(O)c(-c3ccc(F)c(C(F)(F)F)c3)[nH]c21 [Example 6]", "TGT": "human NOX4 (Homo sapiens)", "TEST_RESULT": 94.3}
{"COMPOUND": "Cn1nc(C(F)(F)F)c2c(=O)c(O)c(-c3ccccc3Cl)[nH]c21 [Example 40]", "TGT": "human NOX4 (Homo sapiens)", "TEST_RESULT": 100}
{"COMPOUND": "Cc1nn(C2CCC(F)(F)CC2)c2[nH]c(-c3c(F)cccc3F)c(O)c(=O)c12 [Example 137]", "TGT": "human NOX4 (Homo sapiens)", "TEST_RESULT": 86.3}
{"COMPOUND": "CCn1nc(C)c2c(=O)c(OC)c(-c3c(F)cccc3F)[nH]c21 [Example 234]", "TGT": "human NOX4 (Homo sapiens)", "TEST_RESULT": 70.2}
{"COMPOUND": "O=c1c(O)c(-c2c(F)cccc2F)[nH]c2c1cnn2-c1ccc(F)cc1 [Example 9]", "TGT": "human NOX4 (Homo sapiens)", "TEST_RESULT": 97.4}
{"COMPOUND": "CCc1nn(CCN2C[C@@H](C)O[C@@H](C)C2)c2[nH]c(-c3ccccc3Cl)c(O)c(=O)c12 [Example 202]", "TGT": "human NOX4 (Homo sapiens)", "TEST_RESULT": 78}
{"COMPOUND": "CCc1nn(CCN2CCC(F)(F)CC2)c2[nH]c(-c3ccccc3Cl)c(O)c(=O)c12 [Example 210]", "TGT": "human NOX4 (Homo sapiens)", "TEST_RESULT": 86.3}
{"COMPOUND": "Cc1nn(C2CC2)c2[nH]c(-c3cc(CNC(=O)C(C)(C)C)ccc3Cl)c(O)c(=O)c12 [Example 133]", "TGT": "human NOX4 (Homo sapiens)", "TEST_RESULT": 88.8}
{"COMPOUND": "Cn1nc(Cc2ccccc2)c2c(=O)c(O)c(-c3c(F)cccc3F)[nH]c21 [Example 115]", "TGT": "human NOX4 (Homo sapiens)", "TEST_RESULT": 80.8}
{"COMPOUND": "CCc1nn(CCCN2CCOCC2)c2[nH]c(-c3c(F)cccc3F)c(O)c(=O)c12 [Example 175]", "TGT": "human NOX4 (Homo sapiens)", "TEST_RESULT": 81.3}
{"COMPOUND": "Cc1nn(C2CCCCC2)c2[nH]c(-c3c(F)cccc3F)c(O)c(=O)c12 [Example 136]", "TGT": "human NOX4 (Homo sapiens)", "TEST_RESULT": 87.5}
{"COMPOUND": "Cc1noc2[nH]c(-c3ccccc3Cl)c(O)c(=O)c12 [Example 64]", "TGT": "human NOX4 (Homo sapiens)", "TEST_RESULT": 100}
{"COMPOUND": "CCn1nc(C)c2c(=O)c(O)c(-c3cc(CNC(=O)C(C)(C)C)ccc3F)[nH]c21 [Example 138]", "TGT": "human NOX4 (Homo sapiens)", "TEST_RESULT": 85}
{"COMPOUND": "Cn1nc(CO)c2c(=O)c(O)c(-c3c(F)cccc3F)[nH]c21 [Example 188]", "TGT": "human NOX4 (Homo sapiens)", "TEST_RESULT": 100}

Reference source: patent US20200247800A1
